Hey, just so you know, these numbers are from patent US20230071371A1.

- target_or_system: T1, GPR10 (UniProt P49683 1-370, limits assumed)
- T1 sequence (looked up): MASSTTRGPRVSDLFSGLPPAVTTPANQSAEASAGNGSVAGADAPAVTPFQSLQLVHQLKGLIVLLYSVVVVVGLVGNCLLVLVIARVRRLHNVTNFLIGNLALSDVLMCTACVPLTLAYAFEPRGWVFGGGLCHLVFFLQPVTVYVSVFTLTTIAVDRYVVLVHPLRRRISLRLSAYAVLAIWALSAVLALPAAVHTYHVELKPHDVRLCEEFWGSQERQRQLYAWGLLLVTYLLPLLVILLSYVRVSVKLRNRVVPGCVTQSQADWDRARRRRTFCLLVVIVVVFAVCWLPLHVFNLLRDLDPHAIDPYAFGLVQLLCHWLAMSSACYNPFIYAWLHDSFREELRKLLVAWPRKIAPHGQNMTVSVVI
- experiment_summary: cell-based or functional assay
Bridges are numbered along the chain shown (N, C = ends). Where no end group is shown, it is not given here. L1 = not defined here; L3 = not defined here; L5 = not defined here
Listed here: items and their measured GPR10 EC50.
Just the number in nM, nothing appended.

Some solved entries appear below for comparison.
# binder, unit_name, GPR10 EC50
data = [
    ("SRAHQHSMETRTPDICPAWYTGCGIRPVGRF-NH2 (linker 16-23 via L5; reading uncertain) [Conjugate 247]", "nM", 2800),
    ("TCDINPAWCTGRGIRPVGRF-NH2 (linker 2-9 via L1; reading uncertain) [Conjugate 204]", "nM", 12),
    ("TPDINPAWCTGRGIRCVGRF-NH2 (cysteine pairing not given here) [SEQ ID NO 87]", "nM", 120),
    ("SRAHQHSMETRTPDCNPAWYTCRGIRPVGRF-NH2 (linker 15-22 via L3; reading uncertain) [Conjugate 242]", "nM", 6.1),
    ("CRAHQHSCETRTPDINPAWYTGRGIRPVGRF-NH2 (cysteine pairing not given here) [SEQ ID NO 89]", "nM", 16),
    ("TPDINCAWYTGRCIRPVGRF-NH2 (linker 6-13 via L1; reading uncertain) [Conjugate 208]", "nM", 15),
]

Query string: Sample CRAHQHSCETRTPDINPAWYTGRGIRPVGRF-NH2 (linker 1-8 via L1; reading uncertain) [Conjugate 225] — what was its GPR10 EC50?
Result string: 24

Query string: Sample TPDICPAWYTGCGIRPVGRF-NH2 (linker 5-12 via L5; reading uncertain) [Conjugate 221] — what was its GPR10 EC50?
Result string: 840

Query string: Sample SRAHQHSMETRTPDINPCWYTGRGCRPVGRF-NH2 (linker 18-25 via L3; reading uncertain) [Conjugate 248] — what was its GPR10 EC50?
Result string: 7.5

Query string: Sample TCDINPAWCTGRGIRPVGRF-NH2 (linker 2-9 via L5; reading uncertain) [Conjugate 215] — what was its GPR10 EC50?
Result string: 620
